Assign IC50 to each entry below.
measurementTarget: PAR2 (HT-29 cells) (Homo sapiens, UniProt P55085)
Construct: host or cells: HT-29
Sequence (P55085 26-397): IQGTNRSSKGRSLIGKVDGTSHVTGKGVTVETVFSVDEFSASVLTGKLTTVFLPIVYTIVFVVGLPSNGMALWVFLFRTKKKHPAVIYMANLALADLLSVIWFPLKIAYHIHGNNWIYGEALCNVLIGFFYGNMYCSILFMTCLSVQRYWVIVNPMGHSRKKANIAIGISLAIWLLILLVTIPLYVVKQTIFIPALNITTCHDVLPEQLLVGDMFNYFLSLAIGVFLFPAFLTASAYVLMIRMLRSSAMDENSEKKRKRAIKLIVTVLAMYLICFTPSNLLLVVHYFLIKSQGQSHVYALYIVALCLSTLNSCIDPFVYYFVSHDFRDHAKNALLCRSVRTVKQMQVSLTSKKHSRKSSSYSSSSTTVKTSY
procedureText: Ca FLIPR TETRA assay, ANTAGONIST mode, activator 3.1 U/mL trypsin
Format: cell-based
conditionSummary: HT-29 cells; activator 3.1 U/mL trypsin; Method A: maximal concentration of antagonist 0.1, 1 or 2 μM
Method: Protocol for Testing PAR2 Compounds in ANTAGONIST Mode Using the Ca FLIPR^TETRA Assay (384 Well). […] A first read was performed to determine whether the test compounds on their own can activate Ca^2+ responses. The cells were incubated with the compounds for 30 min at r. t. and then read in ANTAGONIST mode in the same plate by stimulating with 6.2 uL of a fixed concentration of the activator: final concentrations 8 μM SLIGKV, 1 U/mL Thrombin, 3.1 U/mL trypsin, or 0.6 μM UTP.
Give a bare numeral; the unit nM is implied.

Lab note: measured IC50 of Cc1ccc(N2CCN(C(=O)c3cc4nc(-c5ccc(Cl)c(F)c5)cc(C(C)(C)C)c4o3)C(C)(C)C2=O)nn1 [Example I-355] was 16

Lab note: measured IC50 of Cc1cncc(N2CCN(C(=O)c3cc4nc(-c5ccc(Cl)c(F)c5)cc(C(C)(C)C)c4o3)C(C)(C)C2=O)n1 [Example I-334] was 1.6

Lab note: measured IC50 of Cc1cccc(C2CCN(C(=O)c3cc4nc(-c5ccc(Cl)cc5)cc(C(C)(C)C)c4o3)C(C)(C)C2)n1 (stereo not shown) [Example I-383] was 12

Lab note: measured IC50 of Cc1nc(N2CCN(C(=O)c3cc4nc(-c5ccc(Cl)c(F)c5)cc(C(C)(C)C)c4o3)C(C)(C)C2)oc1C(=O)O [Example I-476] was 1.6

====

measurementTarget: PAR2 (HT-29 cells) (Homo sapiens, UniProt P55085)
Construct: host or cells: HT-29
procedureText: Ca FLIPR TETRA assay, ANTAGONIST mode, activator 3.1 U/mL trypsin
Format: cell-based
conditionSummary: HT-29 cells, activator 3.1 U/mL trypsin; maximal antagonist concentration per Method (A: 0.1, 1 or 2 μM; B: 50 μM)
For each record, check the reported IC50: if it is below 0.03 µM write YES, else write NO.

Task item: Just wondering, is IC50 of `CC(C)[C@@H](O)C(=O)N1CCN(C(=O)c2cc3nc(-c4ccc(F)cc4)cc(C4(C)CC4)c3o2)C[C@@H]1C` below 0.03 µM?
Reply: YES

Task item: Just wondering, is IC50 of `CC(C)c1cc(-c2ccc(F)cc2)nc2cc(C(=O)N3CCN(C(=O)C4(O)CC4)CC3(C)C)oc12` below 0.03 µM?
Reply: YES

Task item: Just wondering, is IC50 of `Cc1cc(-c2ccc(F)cc2)nc2cc(C(=O)N3CCN(C(=O)C(C)(C)O)CC3(C)C)oc12` below 0.03 µM?
Reply: NO

Task item: Just wondering, is IC50 of `Cc1ccc(-c2cc(C(C)(C)C)c3oc(C(=O)N4CCN(C(=O)[C@H]5C[C@@](C)(O)C5)CC4(C)C)cc3n2)cc1` below 0.03 µM?
Reply: YES

Task item: Just wondering, is IC50 of `Cc1n[nH]cc1N1CCN(C(=O)c2cc3nc(-c4ccc(F)cc4)cc(C(C)(C)C)c3o2)C(C)(C)C1=O` below 0.03 µM?
Reply: NO

Task item: Just wondering, is IC50 of CC(C)(C)c1cc(-c2ccc(Cl)cc2)nc2cc(C(=O)N3CCN(C(=O)C4CCC(C(=O)O)O4)CC3(C)C)oc12 (stereo not shown) below 0.03 µM?
Reply: NO

Task item: Just wondering, is IC50 of `CC(C)c1cc(-c2ccc(F)cc2)nc2cc(C(=O)N3CCN(C(=O)c4ccon4)CC3(C)C)oc12` below 0.03 µM?
Reply: YES

Values were extracted from patent US20180057505A1.
